MEASURED METRIC: melting point

Documented melting point of CCC(C)c1c(F)nc(-n2cccn2)nc1NCC(F)(F)F (stereo not drawn) : 132 to 134 °C

Form field melting point, entry CCC(C)c1c(Cl)nc(-n2cc(Cl)cn2)nc1NCC(F)(F)F (stereo not drawn) : 173 to 174 °C

Data point: CCC(C)c1c(Br)nc(-n2cccn2)nc1NCC(F)(F)F (stereo not drawn) ; melting point = 136 to 139 °C

* * *

Assignment: determine reported pest or weed control at 500 ppm for the given molecules.
system: Pyricularia oryzae; assay: whole plant or invertebrate; assay type: in vivo; details: Pyricularia oryzae, 120 h, read-out: control level
All answers are understood in %, so give the number only.

Input CCC(C)c1c(F)nc(-n2cccn2)nc1NCC(F)(F)F (stereo not drawn) . Output pest or weed control at 500 ppm: 100

pest or weed control at 500 ppm reported for this molecule CCC(C)c1c(NCC(F)(F)F)nc(-n2cccn2)nc1OC(F)F (stereo not drawn) : 100

So, CCC(C)c1c(NCC(F)(F)F)nc(-n2cccn2)nc1SC (stereo not drawn) ? Its pest or weed control at 500 ppm was 100

Field pest or weed control at 500 ppm (entry CCC(C)c1c(NC(C)C)nc(-n2cccn2)nc1C(F)(F)F (stereo not drawn) ) reads 100

// pest or weed control at 500 ppm lookup, molecule = CCC(C)c1c(Cl)nc(-n2cc(Cl)cn2)nc1NCC(F)(F)F (stereo not drawn) , result: 100

CCc1nc(-n2cccn2)nc(NCC(F)(F)F)c1C(C)CC (stereo not drawn) yielded pest or weed control at 500 ppm of 100

Per the record, CCC(C)c1c(Br)nc(-n2cccn2)nc1NCC(F)(F)F (stereo not drawn) has pest or weed control at 500 ppm of 100

The measured pest or weed control at 500 ppm associated with CCC(C)c1c(NCC(F)(F)F)nc(-n2cccn2)nc1C1CC1 (stereo not drawn) reads 100

Please fill in: pest or weed control at 500 ppm reported for CCC(C)c1c(Cl)nc(-n2cccn2)nc1NCC(F)(F)F (stereo not drawn) = 100
